Just for reference, patent US20140263071A1 is where these values come from.

# PROTOCOL DETAILS: Solubility of the compounds, molybdenum blue method, UV/Vis 880 nm (Example 6)
# Assay type: physicochemical
# CONDITION NOTES: saturated aqueous solution, read-out: mg/l (solubility calculated for whole molecule)
ASSAY ENDPOINT: solubility (mg/L)

Use the examples below as a reference point.
# SMILES STRUCTURE, UNITS OF MEASURE, solubility
measured = [
    ("CCCCCC(O)(P(=O)(O)O)P(=O)(O)O", "mg/L", 54),
    ("NCCCCCCCCCCCCCCCC(O)(P(=O)(O)O)P(=O)(O)O", "mg/L", 42),
    ("NCCCCCCCCC(O)(P(=O)(O)O)P(=O)(O)O", "mg/L", 2180),
    ("O=P(O)(O)C(O)(CCCCCCCCCCO)P(=O)(O)O", "mg/L", 22900),
    ("CNCCCCCCCCCCC(O)(P(=O)(O)O)P(=O)(O)O", "mg/L", 594),
]

P = NCCCCCCCCCC(O)(P(=O)(O)O)P(=O)(O)O
Q = CCCCCCCCC(O)(P(=O)(O)O)P(=O)(O)O
Ask: solubility comparison. Which is larger, P or Q ? Select an item and report its label.
Reply: P

1 = NCCCCCCCCCCCC(O)(P(=O)(O)O)P(=O)(O)O
2 = NCCCCCCCC(O)(P(=O)(O)O)P(=O)(O)O
Ask: Consider entries 1 and 2 . Which has the numerically lower solubility? Select an item and report its label.
Reply: 1

###

# PROTOCOL DETAILS: Solubility of the compounds, molybdenum blue method, UV/Vis 880 nm (Example 6)
# Assay type: physicochemical
# CONDITION NOTES: saturated aqueous solution, read-out: mg/l P (solubility calculated as elemental phosphorus)
# Text: The low solubility is achieved by using long carbon chain(s) or aromatic ring(s) in the bisphosphonate structure I. Advantageously, compound I contains 7-16 carbon atoms either in chain, branched chain or cyclic structure or in combination of these structural units between A and X, and preferably in the chain starting from the P-C-P bridging carbon and the number of heteroatomic functional groups excluding the phosphorous functionalities are limited to two or three groups. […]
ASSAY ENDPOINT: solubility (mg/L)

# COMPOUND, UNITS OF MEASURE, MEASURED
data = [
    ("NCCCCCCCCCCCCCCCC(O)(P(=O)(O)O)P(=O)(O)O [Compound 1f]", "mg/L", 6),
]

I = NCCCCCCCC(O)(P(=O)(O)O)P(=O)(O)O [Compound 1b]
II = CCCCCCCCCCCCC(P(=O)(O)O)P(=O)(O)O [Compound 6c, Tridecane-1,1-diyldiphosphonic acid]
III = CCCCCCCCC(O)(P(=O)(O)O)P(=O)(O)O [Compound 3b]
IV = NCCCCCCCCCC(O)(P(=O)(O)O)P(=O)(O)O [Compound 1d]
Ask: Hey, quick one: sort these by solubility, largest value first please. Your reply should list the labels following the order given in the request.
Reply: I, IV, III, II
(I: 426 mg/L, IV: 40 mg/L, III: 1 mg/L, II: 0.2 mg/L)

###

# PROTOCOL DETAILS: Solubility of the compounds, molybdenum blue method, UV/Vis 880 nm (Example 6)
# Assay type: physicochemical
# CONDITION NOTES: saturated aqueous solution, read-out: mg/l P (solubility calculated as elemental phosphorus)
ASSAY ENDPOINT: solubility (mg/L)

# SMILES STRUCTURE, UNITS OF MEASURE, solubility
records = [
    ("O=P(O)(O)C(O)(CCCCCCCCCCO)P(=O)(O)O", "mg/L", 3870),
]

a = CCCCCCCCCCCCCCCCC(P(=O)(O)O)P(=O)(O)O
b = NCCCCCCCCCCCC(O)(P(=O)(O)O)P(=O)(O)O
c = Nc1ccc(CCCC(O)(P(=O)(O)O)P(=O)(O)O)cc1
d = CCCCCC(O)(P(=O)(O)O)P(=O)(O)O
e = NCCCCCCCCC(O)(P(=O)(O)O)P(=O)(O)O
Ask: Rank ascending by solubility. Your reply should list the labels following the order given in the request.
Reply: a, b, d, c, e

###

# PROTOCOL DETAILS: Solubility of the compounds, molybdenum blue method, UV/Vis 880 nm (Example 6)
# Assay type: physicochemical
# CONDITION NOTES: saturated aqueous solution, read-out: mg/l P (solubility calculated as elemental phosphorus)
ASSAY ENDPOINT: solubility (mg/L)

# SMILES STRUCTURE, MEASURED
data = [
    ("CCCCCCCCCCC(P(=O)(O)O)P(=O)(O)O", 0.7),
    ("CCCCCCCCCC(N)(P(=O)(O)O)P(=O)(O)O", 0.05),
    ("NCCCCCCCCCCC(O)(P(=O)(O)O)P(=O)(O)O", 10),
    ("CCCCCCCCCCC(O)(P(=O)(O)O)P(=O)(O)O", 0.3),
]

P = CCCCCCCCC(N)(P(=O)(O)O)P(=O)(O)O
Q = O=P(O)(O)C(O)(CCCCCCc1ccccc1)P(=O)(O)O
Ask: Consider entries P and Q . Which has the numerically lower solubility? Select an item and report its label.
Reply: P

1 = CNCCCCCCCCCCC(O)(P(=O)(O)O)P(=O)(O)O
2 = O=P(O)(O)C(O)(CCCCc1ccccc1)P(=O)(O)O
Ask: solubility comparison. Which is larger, 1 or 2 ? Select an item and report its label.
Reply: 1
(1: 97 mg/L, 2: 1.8 mg/L)

###

# PROTOCOL DETAILS: Expulsion of Cu^2+, Ni^2+ and Fe^3+ without and with activated carbon (Example 9)
# CONDITION NOTES: Ni^2+; pH 3; without activated carbon
ASSAY ENDPOINT: Expulsion [%] Ni^2+ (%)
The reply should contain only the number, in %.

# SMILES STRUCTURE, ASSAY ENDPOINT, MEASURED
data = [
    ("CCCCCCCCCCC(P(=O)(O)O)P(=O)(O)O", "Expulsion [%] Ni^2+", 17.2),
    ("Nc1ccc(CCCC(O)(P(=O)(O)O)P(=O)(O)O)cc1", "Expulsion [%] Ni^2+", 7.9),
    ("CCCCCCCCCCCCC(P(=O)(O)O)P(=O)(O)O", "Expulsion [%] Ni^2+", 20.8),
    ("O=P(O)(O)C(O)(CCCCCCCCCCO)P(=O)(O)O", "Expulsion [%] Ni^2+", 6.9),
]

Ask: Consider the compound CNCCCCCCCCCCC(O)(P(=O)(O)O)P(=O)(O)O and give its measured Expulsion [%] Ni^2+.
Reply: 13.3
